Recorded % Inhibition at 10 µM, one value per entry.
# Test system: CCD-966SK
# METHOD_DESCRIPTION: MTT cell proliferation assay, CCD-966SK
# TEST_SETTINGS: CCD966SK skin fibroblast; 10 µM; 72 h MTT
Give just the numeric value; % need not be written.

The examples below pair each entry with its known result.
1. Clc1ccc(CNc2c3ccccc3nc3ccccc23)cc1 [Compound 13, Acridin-9-yl-(4-chlorobenzyl)-amine] : 2.73
2. COc1ccccc1CNc1c2ccccc2nc2ccccc12 [Compound 5, Acridin-9-yl-(2-methoxybenzyl)-amine] : 6.65
3. c1csc(-c2ccc(CNc3c4ccccc4nc4ccccc34)cc2)c1 [Compound 24] : 47.41

From here, focus on the item given below.
Sure, the documented % Inhibition at 10 µM for Fc1ccc(CNc2c3ccccc3nc3ccccc23)cc1F [Compound 22, Acridin-9-yl-(3,4-difluorobenzyl)-amine] is 37.49
